# PROCEDURE DETAILS: E. coli DRC41 culture turbidity changes, primary screen, E. coli filamentation inducer project, strain DRC41, OD650, 48 h (AID 1152);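 also: E. coli MC1000 strain DRC41 lacking acrAB efflux pump and sulA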
# CONDITION NOTES: E. coli DRC41 (acrAB sulA), higher = more signal, called active from +8 up or from −8 down
Returns the class for an entry based on its z-score. Class ranges: lower bin: < -0.7; middle bin: ≥ -0.7 and < 0.4; upper bin: ≥ 0.4

// below: answered compounds
Place this compound in its band: COCCOC(=O)N1C(=O)[C@@]2(c3cc(C#CCNC(N)=O)ccc31)[C@H](c1ccccc1OCCO)N1[C@H](c3ccccc3)[C@H](c3ccccc3)OC(=O)[C@H]1[C@@H]2C(=O)N1CCCCCCC1 middle bin

Place this compound in its band: Cc1ccc(S(=O)(=O)N2[C@@H](c3ccccc3)C(C(=O)O)=CC[C@H]2c2ccc(F)cc2)cc1 middle bin

Place this compound in its band: C=CCOC(=O)[C@@H]1[C@H]2C(=O)O[C@H](c3ccccc3)[C@H](c3ccccc3)N2[C@H](c2ccc(OCCOC(=O)[C@@H]3C[C@@H]4C(=O)N[C@@H](CC(C)C)C(=O)N4[C@@H]3c3ccc(O)cc3)cc2)[C@@]12C(=O)Nc1ccc(I)cc12 upper bin

Place this compound in its band: C=C(CCCC)C(=O)CC[C@@H](OC(C)=O)c1ccc(OCCO)cc1 middle bin

Place this compound in its band: CC(C)C[C@@H]1NC(=O)[C@H]2C[C@@H](C(=O)O)[C@@H](c3cccc(OCCO)c3)N2C1=O upper bin

Continuing:
Place this compound in its band: C=C(COC)/C(=C/C[C@@H](OC(=O)c1ccncc1)c1ccccc1OCCO)c1cnc2ccccc2c1 upper bin

Place this compound in its band: O=C1O[C@H](c2ccccc2)[C@H](c2ccccc2)N2[C@H]1[C@@H](C(=O)N1CCCCCCC1)[C@]1(C(=O)Nc3ccc(C#CCCO)cc31)[C@H]2c1ccc(O)cc1 upper bin

Place this compound in its band: CCCCCN1CC=CC23O[C@@H]4/C=C\CCCOC(=O)C4[C@H]2C(=O)N(CCCCCO)[C@@H]3C1=O (some centres not stated) upper bin

Place this compound in its band: O=C1C2C=CC(C(O)c3ccccn3)N(Nc3ccc([N+](=O)[O-])cc3)C2C(=O)N1c1ccccc1 (configuration not stated) lower bin

Hello, the source for this data is PubChem BioAssay, in case you need it.
